# Tested on: L6-myotubes
# test_description: Glucose uptake (3H-2-deoxy-glucose) in differentiated L6-myotubes
# Assay type: cell-based
# details: agonist final concentration 1×10^−5, 50 nM 3H-2-deoxy-glucose, relative to isoproterenol, read-out: Biological example 1 (glucose uptake, activity compared to that of isoproterenol)
Structures can show the parent of a compound that is named as a salt.
quantity: Emax

molecule	Emax
CCCCNC[C@H](O)c1csc(N)n1 [Example 1, hydrochloride]	25 to 50%

// sample Cn1ccc([C@@H](O)CNC(C)(C)C)cc1=O , its Emax was > 75%

Given item CCCCNCC(O)c1ccncc1 (centres unmarked) , the value recorded as its Emax is 25 to 50%

// field: Emax; key: CC(C)(C)NC[C@H](O)c1ccc(O)cn1 ; value = 50 to 75%

Sample CC(C)(C)NC[C@H](O)c1cncc(O)c1 [Example 13, dihydrochloride] ; Emax observed: > 75%
